molecular target: Luciferin 4-monooxygenase (Photinus pyralis); assay: Counterscreen Assay for Enhancers of SMN2 Splice Variant Expression: Interaction with Luciferase Reporter for Probe SAR; conditions: purified firefly luciferase, luminescence inhibition; series mostly up to 51 µM
Inconclusive results are not listed. Activity calls are given as the source filed them. Calls follow the shape of the dose curve; as a rule, active = well fitted inhibition curve with a large enough effect; inconclusive = small, poorly fitted or top-dose-only effect; inactive = flat fitted curve, though single readings scatter.
Outcome codes: 1 (active), -1 (inactive)

Substance smiles | Group label
NC(=O)C1CCN(c2nc(-c3ccc(Br)cc3)cs2)CC1 | 1
NC(=O)C1CCN(c2nc(-c3ccccc3N)cs2)CC1 | -1
CS(=O)(=O)c1ccccc1-c1csc(N2CCC(C(N)=O)CC2)n1 | -1
Cc1noc(C)c1-c1csc(N2CCC(C(N)=O)CC2)n1 | -1
NC(=O)C1CCN(c2nc(-c3ccc4c(c3)OCCO4)cs2)CC1 | 1
CS(=O)(=O)c1cccc(-c2csc(N3CCC(C(N)=O)CC3)n2)c1 | -1
Cn1ccc2cc(-c3csc(N4CCC(C(N)=O)CC4)n3)ccc21 | 1
CN(C)c1ccccc1-c1csc(N2CCC(C(N)=O)CC2)n1 | -1
NC(=O)C1CCN(c2nc(-c3cccnc3)cs2)CC1 | -1
Cc1ccc(-c2csc(N3CCC(C(N)=O)CC3)n2)cc1 | 1
NC(=O)C1CCN(c2nc(-c3ccc(F)cc3)cs2)CC1 | 1
NC(=O)C1CCN(c2nc(-c3ccc4ccccc4c3)cs2)CC1 | 1
CN(C)c1cccc(-c2csc(N3CCC(C(N)=O)CC3)n2)c1 | 1
NC(=O)C1CCN(c2nc(-c3ccccc3F)cs2)CC1 | 1
NC(=O)C1CCN(c2nc(-c3ccccc3C(F)(F)F)cs2)CC1 | -1
